procedure.text: Entrapment efficiency of LNP preparation encapsulating EGFP mRNA
Type: physicochemical
experimental.setup: LNP ionizable lipid/DOPE/cholesterol/DSPE-PEG2000 35/16/46.5/2.5 mol% encapsulating EGFP mRNA
Reported Entrapment Efficiency values for a set of molecules
test.readout: Entrapment Efficiency (%)

• CCCCCCCCCCCCCCC(O)CN(CCN(CCN1CCN(C)CC1)CCN(CC(O)CCCCCCCCCCCCCC)CC(O)CCCCCCCCCCCCCC)CC(O)CCCCCCCCCCCCCC (stereo not drawn) = 91.51
• CCCCCCCCCCCCC(O)CN(CCOCCOCCOCCN(CCOCCOCCOCCN(CC(O)CCCCCCCCCCCC)CC(O)CCCCCCCCCCCC)CCN1CCN(CCOCCOCCOCCN(CC(O)CCCCCCCCCCCC)CC(O)CCCCCCCCCCCC)CC1)CC(O)CCCCCCCCCCCC (stereo not drawn) = 92.36
• CCCCCCCCCCCCCCC(O)CN(CCN1CCN(CCN(CCN(CC(O)CCCCCCCCCCCCCC)CC(O)CCCCCCCCCCCCCC)CCN(CC(O)CCCCCCCCCCCCCC)CC(O)CCCCCCCCCCCCCC)CC1)CC(O)CCCCCCCCCCCCCC (stereo not drawn) = 90.30
